Data credit: the supplement of paper PMC10307832

Task for the reader: assign each of the following compounds its reported relative viability.
Tested on: NCI-H1650
PROCEDURE TEXT: relative viability (nuclei count vs DMSO), 5 days (fraction); higher = more cells survive
CONDITION SET: first compound 0.2 µM
Give bare numbers.

For every item in the list below, what is its measured relative viability?
1. CCNC(=O)c1noc(-c2cc(C(C)C)c(O)cc2O)c1-c1ccc(CN2CCOCC2)cc1 [Luminespib] + O=C(CCCCCCC(=O)Nc1ccccc1)NO [Vorinostat] (partner 1 µM)
2. CN1CCN(CCOc2cc(OC3CCOCC3)c3c(Nc4c(Cl)ccc5c4OCO5)ncnc3c2)CC1 [Saracatinib] + CS(=O)(=O)CCNCc1ccc(-c2ccc3ncnc(Nc4ccc(OCc5cccc(F)c5)c(Cl)c4)c3c2)o1 [Lapatinib] (partner 2 µM)
3. CCNC(=O)c1noc(-c2cc(C(C)C)c(O)cc2O)c1-c1ccc(CN2CCOCC2)cc1 [Luminespib] + COc1cccc2cc(-c3nc([C@H]4CC[C@H](C(=O)O)CC4)n4ncnc(N)c34)[nH]c12 [OSI-027] (partner 0.5 µM)
4. Cc1csc(=NC2CCCCC2)n1/N=C/c1ccc(O)c(O)c1O [MIM1] + O=C(c1cc(Cc2n[nH]c(=O)c3ccccc23)ccc1F)N1CCN(C(=O)C2CC2)CC1 [Olaparib] (partner 8 µM)

Result block:
0.135
0.803
0.148
0.627

* * *

System: SK-MES-1
PROCEDURE TEXT: relative viability (nuclei count vs DMSO), 5 days (fraction); higher = more cells survive
CONDITION SET: first compound 0.2 µM
Class membership depends on relative viability alone; the intervals are lowest = under 0.6, middle = from 0.6 up to 0.8, highest = 0.8 and over

| COMPOUND | LABEL CLASS |
| --- | --- |
| CN1CCN(CCOc2cc(OC3CCOCC3)c3c(Nc4c(Cl)ccc5c4OCO5)ncnc3c2)CC1 [Saracatinib] + COc1cc2c(Oc3ccc(NC(=O)C4(C(=O)Nc5ccc(F)cc5)CC4)cc3F)ccnc2cc1OCCCN1CCOCC1 [Foretinib] (partner 0.25 µM) | middle |
| CCNC(=O)c1noc(-c2cc(C(C)C)c(O)cc2O)c1-c1ccc(CN2CCOCC2)cc1 [Luminespib] + N=C(N)NC(=N)NCCc1ccccc1 [Phenformin] (partner 250 µM) | lowest |
| CCNC(=O)c1noc(-c2cc(C(C)C)c(O)cc2O)c1-c1ccc(CN2CCOCC2)cc1 [Luminespib] + C[C@]1(O)C[C@@H](c2nc(-c3ccc4ccc(-c5ccccc5)nc4c3)c3c(N)nccn32)C1 [Linsitinib] (partner 1 µM) | lowest |
| Cc1csc(=NC2CCCCC2)n1/N=C/c1ccc(O)c(O)c1O [MIM1] + CC(=O)Nc1cccc(-n2c(=O)n(C3CC3)c(=O)c3c(Nc4ccc(I)cc4F)n(C)c(=O)c(C)c32)c1 [Trametinib] (partner 0.02 µM) | lowest |

Query block: Exam item: assign Cc1csc(=NC2CCCCC2)n1/N=C/c1ccc(O)c(O)c1O [MIM1] + Nc1nc2[nH]cc(CCc3ccc(C(=O)N[C@@H](CCC(=O)O)C(=O)O)cc3)c2c(=O)[nH]1 [Pemetrexed] (partner 0.2 µM) to the correct category.
Result block: highest

Query block: Exam item: assign CN1CCN(CCOc2cc(OC3CCOCC3)c3c(Nc4c(Cl)ccc5c4OCO5)ncnc3c2)CC1 [Saracatinib] + Nc1nc2[nH]cc(CCc3ccc(C(=O)N[C@@H](CCC(=O)O)C(=O)O)cc3)c2c(=O)[nH]1 [Pemetrexed] (partner 0.2 µM) to the correct category.
Result block: highest

Query block: Exam item: assign Cc1csc(=NC2CCCCC2)n1/N=C/c1ccc(O)c(O)c1O [MIM1] + COc1cccc2cc(-c3nc([C@H]4CC[C@H](C(=O)O)CC4)n4ncnc(N)c34)[nH]c12 [OSI-027] (partner 0.5 µM) to the correct category.
Result block: middle
